Test system: Micrococcus luteus
Assay: Antimicrobial activity against Micrococcus luteus ATCC 10240 after 24 hrs by Kirby-Bauer agar diffusion assay
Type: functional
assay_metric: diameter of the inhibition zone (DIZ)

Take a look at these entries with their results.
{"compound": "ON(CCc1ccccc1)c1ccccn1", "observed_value": "16 mm"}
{"compound": "CO[C@@H]1C=CCC[C@H]1N(O)C(=O)Cc1ccccc1 (relative stereo)", "observed_value": "<=14 mm"}
{"compound": "COc1ccc(CON(CCc2ccccc2)c2ccccn2)cc1", "observed_value": "<=14 mm"}
{"compound": "Cc1cccnc1N=O", "observed_value": "<=14 mm"}
{"compound": "CC(C)(C)OC1C=C[C@@H](N(O)c2ccc(Cl)cn2)C1 (mixture of isomers)", "observed_value": ">14 mm"}

Problem: Which diameter of the inhibition zone (DIZ) value belongs to CO[C@@H]1C=C[C@@H](N(O)C(=O)Cc2ccccc2)C1 (racemic) ?
Result: <=14 mm

Problem: And O=Nc1ccc(I)cn1 ?
Result: <=14 mm

Problem: How about O=Nc1ccc2ccccc2n1 ?
Result: <=14 mm

Problem: Follow-up item: C[C@H](NC(=O)OC(C)(C)C)C(=O)NO
Result: <=14 mm

Problem: What do you get for CO[C@H]1C=CCC[C@@H]1N(O)c1ccc(Br)cn1 (racemic) ?
Result: 34 mm

Problem: Moving on to Cc1nc(N=O)ccc1Br
Result: <=14 mm

Problem: Input COc1ccc(CON(Cc2ccc(OC(F)(F)F)cc2)c2ccccn2)cc1
Result: <=14 mm

Problem: Another compound: C=C(CN(O)c1cc(C)on1)c1ccccc1
Result: >14 mm

Problem: Here is the next compound: O=C(NO)c1ccccc1 [BENZOHYDROXAMATE]
Result: <=14 mm

Problem: Try C=C(C)C(C)N(O)C(=O)[C@H](C)NC(=O)OC(C)(C)C (mixture of isomers) next.
Result: <=14 mm

Problem: Proceed to C=C(C)C(C)N(O)c1ncc(C(F)(F)F)cc1Cl (racemic)
Result: 15 mm

Problem: Likewise for C=C(C)C(C)N(O)c1ccc(Br)cn1 (racemic) ?
Result: 35 mm

Problem: Please do the same for CC(C)C[C@H](NC(=O)OC(C)(C)C)C(=O)NO as well.
Result: <=14 mm

Problem: Entry to check: C=C(C)C(C)N(O)c1ncc(Cl)cc1Cl (racemic)
Result: 27 mm

---

Overview of reported diameter of the inhibition zone (DIZ) across a group of compounds:
Test system: Micrococcus luteus
Test: Antimicrobial activity against Micrococcus luteus ATCC 10240 after 24 hrs by Kirby-Bauer agar diffusion assay
Type: functional
Expressed in mm, but write only the number.

{"compound": "CO[C@@H]1C=C[C@@H](N(O)c2ccc(Br)cn2)CC1 (racemic)", "assay_metric": "diameter of the inhibition zone (DIZ)", "result_unit": "mm", "observed_value": 34}
{"compound": "CCCCCCN(O)c1ccccn1", "assay_metric": "diameter of the inhibition zone (DIZ)", "result_unit": "mm", "observed_value": 15}
{"compound": "CO[C@H]1C=CCC[C@@H]1N(OC(C)=O)c1ccc(Br)cn1 (racemic)", "assay_metric": "diameter of the inhibition zone (DIZ)", "result_unit": "mm", "observed_value": 22}
{"compound": "CCCN(O)c1ccccn1", "assay_metric": "diameter of the inhibition zone (DIZ)", "result_unit": "mm", "observed_value": 13}

Shift focus to the following entry.
Problem: Tell me the measured diameter of the inhibition zone (DIZ) of C=C(C)C(C)N(O)c1ccc(I)cn1 (racemic) , please.
Result: 38

---

Test system: Micrococcus luteus
Experiment: Antimicrobial activity against Micrococcus luteus ATCC 10240 after 24 hrs by Kirby-Bauer agar diffusion assay
Assay type: functional
assay_metric: diameter of the inhibition zone (DIZ)

# count of solved cases: 5
{"compound": "O[C@@H]1C=CC[C@H]1N(O)c1ccc(Br)cn1 (racemic)", "diameter of the inhibition zone (DIZ)": ">14 mm"}
{"compound": "C=C(C)C(C)N(O)c1ncccc1C (racemic)", "diameter of the inhibition zone (DIZ)": "25 mm"}
{"compound": "Cc1cccc(N(O)[C@@H]2CCC=C[C@H]2OC(C)C)n1 (racemic)", "diameter of the inhibition zone (DIZ)": ">14 mm"}
{"compound": "C=C(C)C(C)N(O)c1ccc2ccccc2n1 (racemic)", "diameter of the inhibition zone (DIZ)": "31 mm"}
{"compound": "COC1C=C[C@@H](N(O)c2cccc(C)n2)C1 (mixture of isomers)", "diameter of the inhibition zone (DIZ)": ">14 mm"}

Problem: // fetch Micrococcus luteus diameter of the inhibition zone (DIZ) for C=C(C)C(C)N(O)c1ccc(Br)c(C)n1 (racemic)
Result: 35 mm

Problem: Same read-out for C=C(C)C(C)(C)N(O)c1cc(C)on1 ?
Result: >14 mm

Problem: One more compound: COC1C=C[C@@H](N(O)c2cc(C)on2)C1 (mixture of isomers)
Result: >14 mm

Problem: Another: O=C(Cc1ccccc1)N1OC2C=CC1C2 (racemic)
Result: <=14 mm

Problem: Would you mind doing CC(C)O[C@@H]1C=CC[C@H]1N(O)c1ccc(Br)cn1 (racemic) as well?
Result: >14 mm

Problem: What would you report for COc1ccc(CON(Cc2ccc(C(F)(F)F)cc2)c2ccccn2)cc1 ?
Result: <=14 mm

---

System: Micrococcus luteus
Test: Antimicrobial activity against Micrococcus luteus ATCC 10240 after 24 hrs by Kirby-Bauer agar diffusion assay
Format: functional
assay_metric: diameter of the inhibition zone (DIZ)

Examples from the recorded data:
{"compound": "C=C(C)C(CC/C(C)=C/CO)N(O)c1ccc(Br)cn1 (racemic)", "study_target": "Micrococcus luteus", "diameter of the inhibition zone (DIZ)": ">14 mm"}
{"compound": "C=CCO[C@@H]1C=C[C@@H](N(O)c2ccc(Br)cn2)CC1 (racemic)", "study_target": "Micrococcus luteus", "diameter of the inhibition zone (DIZ)": ">14 mm"}
{"compound": "COC1C=C[C@@H](N(O)c2ccc(Br)cn2)C1 (mixture of isomers)", "study_target": "Micrococcus luteus", "diameter of the inhibition zone (DIZ)": ">14 mm"}
{"compound": "COc1ccc(CON(Cc2ccccc2)c2ccccn2)cc1", "study_target": "Micrococcus luteus", "diameter of the inhibition zone (DIZ)": "0 mm"}

Problem: Item CO[C@@H]1C=CC[C@H]1N(O)c1ncccc1C (racemic) has what recorded diameter of the inhibition zone (DIZ)?
Result: >14 mm

Problem: Would you kindly repeat that for CCCCCCN(OCc1ccc(OC)cc1)c1ccccn1 ?
Result: <=14 mm

Problem: Next compound: CC(C)OC1C=C[C@@H](N(O)c2ccc(Br)cn2)C1 (mixture of isomers)
Result: >14 mm

Problem: CCc1cccc(N=O)n1 , same question.
Result: <=14 mm

---

Tested on: HeLa
Experiment: Cytotoxicity against human HeLa cells
Assay type: cell-based
assay_metric: Activity

Illustrative cases are given below, each with its answer.
{"compound": "Brc1ccc(N2OC3C=CC2C3)nc1 (racemic)", "Activity": "Non-toxic"}
{"compound": "C=C(CCC=C(C)C)C(CO)N(O)c1ccc(Br)cn1 (racemic)", "Activity": "Non-toxic"}
{"compound": "C=C(C)C(C)N(O)c1ccccn1 (racemic)", "Activity": "Non-toxic"}
{"compound": "Cc1cc(N(O)[C@H]2CC=C[C@@H]2OC(C)(C)C)no1 (racemic)", "Activity": "Non-toxic"}

Problem: Fill in the blank: the reported Activity of C=C(C)C(C)N(O)c1ncc(C(F)(F)F)cc1Cl (racemic) is ____.
Result: Non-toxic

Problem: Can you handle CC(=O)ON(Cc1ccccc1)c1ccccn1 next?
Result: Non-toxic

Problem: Another compound to check: C=C(C)C(C)N(O)c1ncccc1C (racemic)
Result: Non-toxic

Problem: Similarly, O=Nc1ccccn1 ?
Result: Non-toxic

Problem: Also need Cc1cccc(N(O)[C@@H]2C=C[C@@H](OC(C)(C)C)CC2)n1 (racemic) , thanks.
Result: Non-toxic

Problem: Input Cc1cccc(N(O)[C@@H]2C=C[C@@H](OC(C)C)CC2)n1 (racemic)
Result: Non-toxic

Problem: Moving on to COC1C=C[C@@H](N(O)c2ccc(Br)cn2)C1 (mixture of isomers)
Result: Non-toxic

---

Tested on: MCF7
Assay: Cytotoxicity against human MCF7 cells
Format: cell-based
assay_metric: Activity

{"compound": "C=C(C)C(C)N(O)c1cccc(CC)n1 (racemic)", "Activity": "Non-toxic"}
{"compound": "O=Nc1ncc(C(F)(F)F)cc1Cl", "Activity": "Non-toxic"}
{"compound": "CC(C)O[C@@H]1C=CCC[C@H]1N(O)c1ccc(Br)cn1 (racemic)", "Activity": "Non-toxic"}
{"compound": "CC(C)OC1C=C[C@@H](N(O)c2ccc(Br)cn2)C1 (mixture of isomers)", "Activity": "Non-toxic"}
{"compound": "CO[C@@H]1C=CC[C@H]1N(O)c1ccc(Cl)cn1 (racemic)", "Activity": "Non-toxic"}

Problem: What Activity value was documented for this compound, C=C(C)C(C)N(O)c1ccc(Cl)cn1 (racemic) ?
Result: Non-toxic

Problem: For ON(Cc1cccc(Oc2ccccc2)c1)c1ccccn1 then?
Result: Non-toxic

Problem: Now the compound O[C@@H]1C=CC[C@H]1N(O)c1ccc(Br)cn1 (racemic)
Result: Non-toxic

Problem: Then this compound: CO[C@@H]1C=CC[C@H]1N(O)c1ccc(Br)cn1 (racemic)
Result: Non-toxic

Problem: Then what about the compound Cc1cc(N2OC3C=CC2C3)no1 (racemic) ?
Result: Non-toxic

Problem: What would you report for COc1ccc(CON(Cc2ccc(C(F)(F)F)cc2)c2ccccn2)cc1 ?
Result: Non-toxic

Problem: Now consider O=C(Cc1ccccc1)N1OC2C=CC1C2 (racemic) .
Result: Non-toxic

Problem: For Cc1cccnc1N(O)[C@@H]1CC=C[C@H]1OC(C)C (racemic) then?
Result: Non-toxic

Problem: Brc1ccc(N2OC3C=CC2C3)nc1 (racemic) , same question.
Result: Non-toxic

Problem: C=CCN(O)c1ccccn1 , same question.
Result: Non-toxic

Problem: Another compound to look at: Cc1cccc(N2OC3C=CC2C3)n1 (racemic)
Result: Non-toxic
